The entries that follow carry IC50 values tested on Macrophage colony-stimulating factor 1 receptor (Homo sapiens), drawn from several published reports.
Test readout: IC50

Query smiles: N#Cc1cc2cnc(NC3CCN(S(=O)(=O)CCCCCCO)CC3)nc2n(C2CCCC2)c1=O
Target or test system: Macrophage colony-stimulating factor 1 receptor (Homo sapiens)
Measurement: 402 nM
--
Query smiles: O=C(c1cccc(NS(=O)(=O)c2ccc(F)cc2)c1)c1c[nH]c2ncc(Cl)cc12
Target or test system: Macrophage colony-stimulating factor 1 receptor (Homo sapiens)
Measurement: ≤ 10000 nM
--
Query smiles: Cc1cccc(C(=O)Nc2cccc([C@@H](C)Oc3cc(Cl)cnc3N)c2)c1Cl
Target or test system: Macrophage colony-stimulating factor 1 receptor (Homo sapiens)
Measurement: ≤ 50 nM
--
Query smiles: Cc1nc(-c2cnc(NC(C)C)[nH]c2=O)ccc1C(=O)c1c[nH]c2ncccc12
Target or test system: Macrophage colony-stimulating factor 1 receptor (Homo sapiens)
Measurement: 88.1 nM
--
Query smiles: CCCCNc1ncnc2[nH]cc(C(=O)c3ccc(Nc4ccc(OC)nc4)nc3F)c12
Target or test system: Macrophage colony-stimulating factor 1 receptor (Homo sapiens)
Measurement: < 10 nM
--
Query smiles: CCCS(=O)(=O)Nc1ccc(F)c(C(=O)c2c[nH]c3ncc(-c4ccc(F)nc4)cc23)c1F
Target or test system: Macrophage colony-stimulating factor 1 receptor (Homo sapiens)
Measurement: ≤ 10000 nM
--
Query smiles: COc1cc(CNc2ccc(Cc3c[nH]c4ncncc34)c(F)n2)cc(OC)c1
Target or test system: Macrophage colony-stimulating factor 1 receptor (Homo sapiens)
Measurement: ≤ 10000 nM
--
Query smiles: OCCOc1ccc(F)c(Cc2c[nH]c3ncc(Br)cc23)c1F
Target or test system: Macrophage colony-stimulating factor 1 receptor (Homo sapiens)
Measurement: ≤ 10000 nM

----------
pIC50: −log10 of the molar value.
The entries that follow carry pIC50 values tested on Macrophage colony-stimulating factor 1 receptor (Homo sapiens, UniProt P07333), drawn from several published reports.
Test readout: pIC50

Query smiles: Cc1nc(NC(=O)N2CCC(C)(C)C2=O)ccc1Oc1ccnc(-c2cnn(CCN3CCOCC3)c2)c1
Measurement: 7.24
//
Query smiles: CC(C)(NCc1cccc(-c2cnc(N)c(NCc3c(Cl)cccc3Cl)n2)c1)C(=O)OC1CCCC1
Measurement: < 5.30
//
Query smiles: CCCS(=O)(=O)Nc1ccc(F)c(C(=O)c2c[nH]c3ncc(-c4cnc(C)nc4)cc23)c1F
Measurement: ≥ 5.00
//
Query smiles: COc1ccc(Nc2ccc(C(=O)c3c[nH]c4ncnc(NC5CCCC5)c34)c(F)n2)cn1
Measurement: > 8.00
//
Query smiles: O=C(c1cccc(NS(=O)(=O)c2cccc(F)c2)c1)c1c[nH]c2ncc(Cl)cc12
Measurement: ≥ 5.00
//
Query smiles: COc1ccc(F)c(C(=O)c2c[nH]c3ncc(Br)cc23)c1
Measurement: ≥ 5.00
//
Query smiles: C[C@@H](NC(=O)C1(C(=O)Nc2ccc(Oc3ccnc(-c4cnn(C)c4)c3)c(F)c2)CC1)c1ccccc1
Measurement: > 6.70
//
Query smiles: COc1ncc(-c2cnc3[nH]cc(C(=O)c4c(F)ccc(NS(=O)(=O)c5c(F)cccc5F)c4F)c3c2)cn1
Measurement: ≥ 5.00

----------
The entries that follow carry pIC50 values tested on Macrophage colony-stimulating factor 1 receptor (Homo sapiens), drawn from several published reports.
pIC50: −log10 of the molar value.

Compound: CCS(=O)(=O)Nc1ccc(F)c(C(=O)c2c[nH]c3ncc(-c4cnn(C)c4)cc23)c1F
Target or test system: Macrophage colony-stimulating factor 1 receptor (Homo sapiens)
pIC50: ≥ 5.00
//
Compound: CN(C)S(=O)(=O)Nc1ccc(F)c(C(=O)c2c[nH]c3ncccc23)c1
Target or test system: Macrophage colony-stimulating factor 1 receptor (Homo sapiens)
pIC50: ≥ 5.00
//
Compound: CC(C)N1CCOc2c(F)cc(-c3nc(Nc4ccc(N5CCC(C)(O)CC5)cn4)ncc3F)cc21
Target or test system: Macrophage colony-stimulating factor 1 receptor (Homo sapiens)
pIC50: < 5.30
//
Compound: CNc1ncnc2[nH]cc(C(=O)c3ccc(Nc4ccc(C(F)(F)F)nc4)nc3F)c12
Target or test system: Macrophage colony-stimulating factor 1 receptor (Homo sapiens)
pIC50: > 8.00
//
Compound: Cc1ccc(S(=O)(=O)Nc2ccc(F)c(C(=O)c3c[nH]c4ncc(Cl)cc34)c2F)s1
Target or test system: Macrophage colony-stimulating factor 1 receptor (Homo sapiens)
pIC50: ≥ 5.00
//
Compound: CNc1ncnc2[nH]cc(C(=O)c3ccc(NC4CCCCC4)nc3Cl)c12
Target or test system: Macrophage colony-stimulating factor 1 receptor (Homo sapiens)
pIC50: > 7.00
//
Compound: Cc1ccc(NC(=O)c2ccc(Cl)c(C(F)(F)F)c2)cc1NC(=O)c1cnoc1C
Target or test system: Macrophage colony-stimulating factor 1 receptor (Homo sapiens)
pIC50: 8.00
//
Compound: CCCS(=O)(=O)Nc1ccc(F)c(C(=O)c2c[nH]c3ncc(-c4ccc(C(=O)NC)nc4)cc23)c1F
Target or test system: Macrophage colony-stimulating factor 1 receptor (Homo sapiens)
pIC50: ≥ 5.00
//
Compound: Cc1cc(NC(=O)C2(C(=O)Nc3ccc(F)cc3)CC2)c(F)cc1Oc1ccnc(-c2cnn(C)c2)c1
Target or test system: Macrophage colony-stimulating factor 1 receptor (Homo sapiens)
pIC50: > 6.70
//
Compound: COc1ccc(Nc2ccc(C(=O)c3c[nH]c4ncnc(NCC(F)(F)F)c34)c(F)n2)cn1
Target or test system: Macrophage colony-stimulating factor 1 receptor (Homo sapiens)
pIC50: > 8.00
//
Compound: COc1cc2c(Oc3ccc(NC(=O)C4(C(=O)Nc5ccc(F)cc5)CC4)cc3)ccnc2cc1OC(=O)N1CCCC1
Target or test system: Macrophage colony-stimulating factor 1 receptor (Homo sapiens)
pIC50: < 6.00
//
Compound: CCCS(=O)(=O)Nc1ccc(F)c(C(=O)c2c[nH]c3ncc(-c4ccc(S(C)(=O)=O)cc4)cc23)c1F
Target or test system: Macrophage colony-stimulating factor 1 receptor (Homo sapiens)
pIC50: ≥ 5.00
//
Compound: O=C(c1cccc(NS(=O)(=O)c2cccc(C(F)(F)F)c2)c1)c1c[nH]c2ncc(Cl)cc12
Target or test system: Macrophage colony-stimulating factor 1 receptor (Homo sapiens)
pIC50: ≥ 5.00
//
Compound: Cn1cc(-c2cc(Oc3ccc(NC(=O)C4(C(=O)Nc5ccc(F)cc5)CC4)c(F)c3)ccn2)cn1
Target or test system: Macrophage colony-stimulating factor 1 receptor (Homo sapiens)
pIC50: > 6.70
//
Compound: COc1ccccc1Nc1ncc(Cc2c[nH]c3ncc(Cl)cc23)cn1
Target or test system: Macrophage colony-stimulating factor 1 receptor (Homo sapiens)
pIC50: > 7.00
//
Compound: O=C(c1cc(NS(=O)(=O)c2cccc(OC(F)(F)F)c2)ccc1F)c1c[nH]c2ncccc12
Target or test system: Macrophage colony-stimulating factor 1 receptor (Homo sapiens)
pIC50: ≥ 5.00
//
Compound: Cn1cc(-c2cnc3[nH]cc(C(=O)c4cccc(NS(=O)(=O)c5ccc(Cl)cc5)c4)c3c2)cn1
Target or test system: Macrophage colony-stimulating factor 1 receptor (Homo sapiens)
pIC50: ≥ 5.00
//
Compound: Cn1cc(-c2cc(Oc3ccc(NC(=O)C4(C(=O)Nc5ccc(F)cc5)CC4)nc3)ccn2)cn1
Target or test system: Macrophage colony-stimulating factor 1 receptor (Homo sapiens)
pIC50: > 6.70
//
Compound: O=C(Nc1ccc(F)c(C(=O)c2c[nH]c3ncc(Br)cc23)c1F)OCc1ccccc1
Target or test system: Macrophage colony-stimulating factor 1 receptor (Homo sapiens)
pIC50: ≥ 5.00
//
Compound: CCN1CCN(Cc2ccc(Nc3ncc(F)c(-c4cc(F)c5c(c4)N(C(C)C)CCO5)n3)cc2F)CC1
Target or test system: Macrophage colony-stimulating factor 1 receptor (Homo sapiens)
pIC50: 7.77
//
Compound: COCCS(=O)(=O)N1CCC(Nc2ncc3cc(C#N)c(=O)n(C4CCCC4)c3n2)CC1
Target or test system: Macrophage colony-stimulating factor 1 receptor (Homo sapiens)
pIC50: 6.08
//
Compound: Cc1ccc(CNc2ccc(Cc3c[nH]c4ncncc34)c(F)n2)nc1
Target or test system: Macrophage colony-stimulating factor 1 receptor (Homo sapiens)
pIC50: ≥ 5.00
//
Compound: CCCCOc1ccc(NC(=O)Nc2cccc(C(=O)c3c[nH]c4ncccc34)c2)cc1
Target or test system: Macrophage colony-stimulating factor 1 receptor (Homo sapiens)
pIC50: ≥ 5.00
//
Compound: Nc1cccc(-c2cnc3[nH]cc(C(=O)c4cccc(O)c4F)c3c2)c1
Target or test system: Macrophage colony-stimulating factor 1 receptor (Homo sapiens)
pIC50: ≥ 5.00
//
Compound: [2H]C([2H])([2H])n1cc(-c2cc(Oc3ccc(NC(=O)N4CCCC(C)(C)C4=O)nc3C)ccn2)cn1
Target or test system: Macrophage colony-stimulating factor 1 receptor (Homo sapiens)
pIC50: 7.69
//
Compound: CCN1CCC(Nc2ncnc3[nH]cc(C(=O)c4ccc(Nc5ccc(OC)nc5)nc4F)c23)CC1
Target or test system: Macrophage colony-stimulating factor 1 receptor (Homo sapiens)
pIC50: > 7.00
//
Compound: Cc1ccccc1NC(=O)Nc1cccc(C(=O)c2c[nH]c3ncc(-c4cccnc4)cc23)c1
Target or test system: Macrophage colony-stimulating factor 1 receptor (Homo sapiens)
pIC50: ≥ 5.00
//
Compound: COc1ccc(NC(=O)Nc2cccc(C(=O)c3c[nH]c4ncccc34)c2)cn1
Target or test system: Macrophage colony-stimulating factor 1 receptor (Homo sapiens)
pIC50: ≥ 5.00
//
Compound: COC(=O)Nc1ccc(F)c(C(=O)c2c[nH]c3ncc(Br)cc23)c1F
Target or test system: Macrophage colony-stimulating factor 1 receptor (Homo sapiens)
pIC50: ≥ 5.00
//
Compound: COc1ncnc2[nH]cc(Cc3ccc(NCc4ccc(C(F)(F)F)nc4)nc3F)c12
Target or test system: Macrophage colony-stimulating factor 1 receptor (Homo sapiens)
pIC50: ≥ 5.00
//
Compound: CN(C)CC(O)COc1ccc(Nc2ncc3c(=O)c(C(N)=O)cn(-c4ccc5c(c4)CCC5)c3n2)cc1 (stereo not shown)
Target or test system: Macrophage colony-stimulating factor 1 receptor (Homo sapiens)
pIC50: 8.57
